Tested Target: Aspartate--tRNA(Asp/Asn) ligase (Mycobacterium tuberculosis (strain ATCC 25618 / H37Rv))
Assay Name: Assay for Asp RNA synthetase-1 from Mycobacterium tuberculosis
Type: functional
Parameters: scale not given: in the data most compounds retested in dose-response had high values
Conditions: 30 µM
For each of the molecules below, state its Percent Effect.
All answers are understood in %, so give the number only.

Which Percent Effect is reported for this molecule? Cc1nccn1CC1CCCN1S(=O)(=O)Cc1ccccc1F (stereo unspecified) 1.06

Which Percent Effect is reported for this molecule? Cc1ccc(Nc2nccc(C3CN(CC(N)=O)C3)n2)nc1 -1.29

Which Percent Effect is reported for this molecule? Cc1cccc(NC2CCN(C(=O)Nc3cc(C)on3)CC2)n1 -5.71

Which Percent Effect is reported for this molecule? CNS(=O)(=O)c1ccc(CNC(=O)NCC2CCCO2)cc1 (stereo unspecified) 0.75

Which Percent Effect is reported for this molecule? CN(Cc1ccccc1)C1(C(=O)O)Cc2ccccc2C1 -1.53

Which Percent Effect is reported for this molecule? CC(C)c1nnc2n1CCN(C(=O)c1cccc(C(F)(F)F)c1)C2 0.896

Which Percent Effect is reported for this molecule? CC1=N[C@@]2(CC[C@@H]3CN(Cc4ccccc4F)C[C@@H]32)C(=O)N1CC1CC1 -6.8

Which Percent Effect is reported for this molecule? Cc1cc(CN(C)C(=O)c2ccnc(N(C)C)c2)no1 -3.84

Which Percent Effect is reported for this molecule? Cc1nn(C)c(N2CCOCC2)c1CNC(c1cccs1)C(C)C (stereo unspecified) 1.8

Which Percent Effect is reported for this molecule? Cn1cc(CN2CC[C@H]3O[C@H](C(=O)NCc4ccco4)CC[C@H]32)cn1 5.47

Which Percent Effect is reported for this molecule? Cn1ncc2c1CN(Cc1cccnc1)CC2COCC1CC1 (stereo unspecified) 2.03
